- target: Cry1Ai insecticidal protein
- experimental.protocol: direct ELISA: protein coated at 500 ng/ml, 10 nM tagged synNAPS with SA-AP
quantity.kind: Binding to Insecticidal Protein (read at 405 nm) (absorbance 405 nm)
The answer is to be given in absorbance 405 nm; state only the numeric part.

Some entries whose results are on file:
{"binder": "synNAPS-3tag ligand (designed binder, in vivo biotinylation (E. coli BirA strain) on the C-terminal avidin-tag, also called tagged synNAPS 3) MRGSHHHHHHGSVKVKFRWGGEEKEVDTSKIWYVARVGKWVLFGYDDNGKRGAGRVREKDAPKELLDMLARAEREKKLGSGLNDIFEAQKIEWH", "quantity.unit": "absorbance 405 nm", "reported.measurement": 1.5}
{"binder": "synNAPS-2tag ligand (designed binder, in vivo biotinylation (E. coli BirA strain) on the C-terminal avidin-tag, also called tagged synNAPS 2) MRGSHHHHHHGSVKVKFKYKGEEKEVDTSKIVWIGRFGKSVYFRYDDNGKTGAGRVYEKDAPKELLDMLARAEREKKLGSGLNDIFEAQKIEWH", "quantity.unit": "absorbance 405 nm", "reported.measurement": 2.5}
{"binder": "synNAPS-11tag ligand (designed binder, in vivo biotinylation (E. coli BirA strain) on the C-terminal avidin-tag, also called tagged synNAPS 11) MRGSHHHHHHGSVKVKFGLGGEEKEVDTSKIRRVLRLGKLVSFTYDDNGKIGLGDVHEKDAPKELLDMLARAEREKKLGSGLNDIFEAQKIEWH", "quantity.unit": "absorbance 405 nm", "reported.measurement": 0.7}

Now consider a different binder.
Please supply the value of reported Binding to Insecticidal Protein (read at 405 nm) for the item synNAPS-4tag ligand (designed binder, in vivo biotinylation (E. coli BirA strain) on the C-terminal avidin-tag, also called tagged synNAPS 4) MRGSHHHHHHGSVKVKFKYKGEEKEVDTSKISYVQRAGKSVYFNYDDNGKTGGGRVFEKDAPKELLDMLARAEREKKLGSGLNDIFEAQKIEWH 2.6
